Target desc: Ubiquitin-activating enzyme e1, putative (Leishmania donovani (strain BPK282A1))
Experiment notes: Leishmania donovani Ubiquitin Activating Enzyme (LdE1)
Format: functional
Parameters: scale not given: direction of the effect not stated beside the values
Condition details: 30 µM
Measured potencies and affinities stand elsewhere.
Percent Effect: recorded values
Recorded metric: Percent Effect (%)

• COCCN1CC[C@@H]2O[C@@H](COCC(=O)N3CCCC3)CC[C@@H]21 = 5.48
• Cc1ccc(NC2CCN(C(=O)Cn3nc(C)cc3C)CC2)nn1 = 15.8
• O=c1[nH]c(CCN2CCCC(Cn3cncn3)C2)nc2ccccc12 (configuration not stated) = 13.5
• CCNC(=O)[C@@H]1C[C@@H](NC(=O)Cc2ccccn2)CN1CCCSC = 0
• Cc1nc[nH]c1CN1CCN(C(=O)c2cccs2)[C@H]2CS(=O)(=O)C[C@H]21 = 2.7
• Cc1nc(NC2CCCC2)cc(C2CCN2C(=O)c2ccccc2)n1 (configuration not stated) = 4.05
• O=C(NCCN1CCNCC1)c1nc2ccccc2c(=O)[nH]1 = 9.33
• Cc1cc(N2CCC(CC(N)=O)CC2)nc(-c2ccncc2)n1 = 13
• O=C(c1cccc2c1OCO2)N1CCCC1c1noc(C2CC2)n1 (configuration not stated) = 5.06
• COc1cn(-c2ccccc2)nc1C(=O)NCCCN1CCCC(C)C1 (configuration not stated) = 0
• Cc1ncc(CNC(=O)c2nn(C)c3c2CS(=O)(=O)CC3)s1 = 9.33
• CN1CCOC(CNC(=O)Cc2ccccc2F)C1 (configuration not stated) = 15.4
• CC(C)C(C)NC(=O)Nc1ccc(CS(C)(=O)=O)cc1 (configuration not stated) = 5.26
• CCNC(=O)c1ccc(N2CCCC(c3nccn3C(C)C)C2)nc1 (configuration not stated) = 8
• O=C1CC2(CCN(CC3CC3)C2)CN1c1ccc2c(c1)OCO2 (configuration not stated) = 16.9
• CCc1nnsc1C(=O)NCCn1nc2ccccn2c1=O = 18.9
• Cc1cnn(CCNCc2nnc(C3CC3)o2)c1 = 26
• Cc1cnn(CCNCc2ccc(F)cc2Cl)c1 = 8.11
• CCC1=N[C@@]2(CC[C@@H]3CN(C(=O)NC(C)C)C[C@@H]32)C(=O)N1C = 18.9
• Cc1cc(C(N)=O)ccc1NC(=O)c1nc(N2CCCC2)ncc1Cl = 0
• Cn1ncc(NCc2cccc(COC(C)(C)C)c2)c(Cl)c1=O = 8
• CN(Cc1cccnc1)CC1CCCN1c1cccnn1 (configuration not stated) = 18.2
• CNC(=O)CCCNCc1c(C)nn(C)c1N(C)C = 0
• CC(=O)N1[C@H](CN(C)C)C[C@@H]2CN(C(=O)c3cccc(F)c3)CC[C@@H]21 = 9.09
• CC(O)CNC(=O)NCc1cccnc1OC1CCCC1 (configuration not stated) = 13.3
• Cc1ccc(CC(=O)N2Cc3nccn3CC(CN(C)C)C2)cc1 (configuration not stated) = 11
• CN(C)c1ccc(CN(CCCn2ccnc2)Cc2c[nH]cn2)cc1 = 17.6
• c1ncn(CC2CN(Cc3noc(C4CC4)n3)CCO2)n1 (configuration not stated) = 2.67
• O=C([C@H]1C[C@H]2OCC[C@H]2N(CCc2ccccc2)C1)N1CCCCO1 = 5.41
• Cc1cnn(CC2CN(CC(=O)NCCc3cccs3)CCO2)c1 (configuration not stated) = 0
• COc1ccc(CNC(=O)c2nn(C)c3c2CS(=O)(=O)CC3)cc1OC = 6.67
• CC(C)c1ncc2c(n1)CN(Cc1ccc(C(N)=O)cc1)CC2 = 18.4
• CC(Cn1cccn1)NC(=O)NCc1ccc(S(N)(=O)=O)cc1 (configuration not stated) = 15.6
• Cc1ccc2cc(C3(O)CCN(C(=O)CN4CCCC4)CC3)ccc2n1 = -1.39
• COCCC(=O)N1CCCC2(CCC(=O)N2CCOC)CC1 (configuration not stated) = 11.7
• Cc1cccnc1CN(C)CC1(O)CCCN(CC2CCCCC2)C1=O (configuration not stated) = -2.7
• CN(Cc1ccsc1)C(=O)CN1CCOC(Cn2cccn2)C1 (configuration not stated) = 7.79
• O=C(NCCc1csc(N2CCCC2)n1)N(C1CCCC1)C1CC1 = -5.33
• COc1ccc(C[C@H]2CN(C(=O)CN(C)C)CC[C@H]2OC)cc1 = 14.3
• COCC(=O)N1CCC2(CCN(Cc3ccccn3)CC2)CC1 = 6.49
• CCc1ccsc1C(=O)N1CCN(CC(O)CC)CC1 (configuration not stated) = 7.79
• Cc1ccc(Cl)cc1N1CCC(CNC(=O)CCn2ccnc2)C1 (configuration not stated) = 5.13
• O=S(=O)(C1CC1)N1C[C@H]2CCC[C@@]2(COc2ccccn2)C1 = 14.7
• CC(=O)N1CCOC2(CCN(C(=O)c3cnoc3C)CC2)C1 = -1.3
• CC(C)CN1CCN(C)C2(CCN(Cc3ccsc3)CC2)C1=O = 6.49
• Cc1cnc(CN(C)C2CCN(CCn3cc(C#N)cn3)C2)o1 (configuration not stated) = 16.2
• Cc1ccc(CNCC2CCc3nnc(C(C)C)n3C2)s1 (configuration not stated) = -1.39
